Ref: paper doi:10.1101/2025.08.03.668247

Target: T1, K659E (Drosophila melanogaster, UniProt Q9W1K4 512-819, K659E)
T1 sequence: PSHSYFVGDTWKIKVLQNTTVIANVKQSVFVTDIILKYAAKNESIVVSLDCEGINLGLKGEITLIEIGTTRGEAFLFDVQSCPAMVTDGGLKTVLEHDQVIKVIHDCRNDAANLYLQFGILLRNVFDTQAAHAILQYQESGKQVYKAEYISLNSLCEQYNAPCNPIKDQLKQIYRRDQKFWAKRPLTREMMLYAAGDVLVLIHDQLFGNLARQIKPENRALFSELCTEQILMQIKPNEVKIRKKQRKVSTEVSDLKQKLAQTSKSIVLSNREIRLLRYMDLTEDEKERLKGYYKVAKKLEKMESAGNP
Experiment: fluorescence anisotropy; FA: 20 mM HEPES-NaOH pH 7.5, 100 mM NaCl, 10% glycerol, 20 C, 10 nM FAM-RNA; competition: 150 nM Egl512-819 + 10 nM FAM-K10 TLS, same buffer
Conditions: protein: recombinant; tags: N-terminal GST; label: 5'-6-FAM; hairpin with two bulges
experimentalEndpoint: Kd

{"binder": "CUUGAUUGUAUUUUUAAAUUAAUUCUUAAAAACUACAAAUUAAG (structured_RNA) [K10 TLS (FAM)]", "experimentalEndpoint": "Kd", "result": "418 nM"}
